- System: MDA-MB-231 human breast cancer cells
- RUN_DESCRIPTION: Cell proliferation assay (CellTiter-Glo, 72 hours treatment)
- Assay type: cell-based
- MEASUREMENT_SETUP: Homo sapiens; MDA-MB-231 cells, 72 hours at 37° C., CellTiter-Glo; read-out: MDA-MB-231 cell proliferation assay (IC50)
Give measured IC50 for each item. Keep answers brief.

Item COc1nc(Cl)cc2c1[C@]1(O)[C@H](O)[C@H](CN3CC(F)C3)[C@@H](c3ccccc3)[C@]1(c1ccc(C#N)cc1)O2 (racemic) [211Fb] with MDA-MB-231 human breast cancer cells - IC50? < 100 nM

Item COc1cncc2c1[C@]1(O)[C@H](O)[C@H](CN3CC4(COC4)C3)[C@@H](c3ccccc3)[C@]1(c1ccc(C#N)cc1)O2 (racemic) [236F] with MDA-MB-231 human breast cancer cells - IC50? 100 to 1000 nM

Item COC(=O)[C@@H]1[C@@H](c2ccccc2)[C@]2(c3ccc(Br)cc3)Oc3cc(Cl)cnc3[C@]2(O)[C@H]1C#N (racemic) [49F] with MDA-MB-231 human breast cancer cells - IC50? 100 to 1000 nM
